Assign IC50 (µg/mL), pseudovirus neutralization to each entry below.
measured_target: HIV-1 APV-17 envelope protein (Env) on pseudovirus (HIV-1 isolate APV-17)
experiment_description: cell-based or functional assay

Please give the measured IC50 (µg/mL), pseudovirus neutralization for this binder: 1456_P20 (PG20) (antibody, human IgG1, kappa, V domains shown) VH: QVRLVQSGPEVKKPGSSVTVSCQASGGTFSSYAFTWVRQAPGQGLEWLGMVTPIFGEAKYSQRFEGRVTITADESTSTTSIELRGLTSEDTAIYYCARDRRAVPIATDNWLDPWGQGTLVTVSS VL: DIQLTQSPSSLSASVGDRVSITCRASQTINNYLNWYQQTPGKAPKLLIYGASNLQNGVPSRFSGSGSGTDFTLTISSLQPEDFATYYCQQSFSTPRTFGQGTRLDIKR
> 50 µg/mL

Note, next up: 1443_C16 (PG16) (TCN-116) (antibody, V domains shown) VH: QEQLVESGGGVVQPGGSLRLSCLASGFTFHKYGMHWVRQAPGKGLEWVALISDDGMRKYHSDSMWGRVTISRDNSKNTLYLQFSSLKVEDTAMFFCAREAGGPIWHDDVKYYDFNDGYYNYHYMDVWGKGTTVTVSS VL: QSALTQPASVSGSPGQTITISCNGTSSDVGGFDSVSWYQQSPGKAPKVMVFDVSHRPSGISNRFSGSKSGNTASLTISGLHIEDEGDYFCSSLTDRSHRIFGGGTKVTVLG
> 50 µg/mL

Note, next up: 1495_C14 (PGC14) (antibody, human IgG1, lambda, V domains shown) VH: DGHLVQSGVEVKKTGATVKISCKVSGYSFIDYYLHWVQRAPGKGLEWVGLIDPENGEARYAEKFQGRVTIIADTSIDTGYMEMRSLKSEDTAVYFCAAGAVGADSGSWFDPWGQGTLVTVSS VL: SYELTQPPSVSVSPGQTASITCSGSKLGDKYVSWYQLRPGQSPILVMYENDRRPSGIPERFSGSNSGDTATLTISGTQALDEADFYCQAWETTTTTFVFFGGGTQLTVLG
> 50 µg/mL

Note, next up: 1496_C09 (PG9) (TCN-109) (antibody, V domains shown) VH: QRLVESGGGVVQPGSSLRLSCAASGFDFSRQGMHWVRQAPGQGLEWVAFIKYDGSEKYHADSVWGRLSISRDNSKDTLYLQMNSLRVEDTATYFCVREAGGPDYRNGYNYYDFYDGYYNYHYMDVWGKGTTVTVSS VL: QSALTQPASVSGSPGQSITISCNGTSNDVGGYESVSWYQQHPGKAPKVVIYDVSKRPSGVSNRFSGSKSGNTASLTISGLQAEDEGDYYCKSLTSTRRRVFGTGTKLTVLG
26.4 µg/mL
